- Tested on: Phospho-YAP (Ser127) in HEK293A cells
- method description: Cellular Phospho-YAP HTRF assay, HEK293A
- Format: cell-based
- recorded conditions: HEK293-A, 2 h; HEK293A cells; 120 min; read-out: YAP phosphorylation IC50
- Description: Compound inhibition of […] YAP phosphorylation were performed based on commercial Phospho-YAP (Ser127) kit (Cisbio). […] The cell pellet was resuspended with appropriate volume of serum-free medium, counted using automated cell counter (Invitrogen), adjusted to a working density of 2.9 × 10^6/ml and dispensed into 384-well small volume white plate (Greiner) at 12 μl/well (3.5 × 10^4 cells) using Thermo Multidrop Combi microplate dispenser. […]

# compound, IC50 [µM]
data = [
    ("NCC1CCN(c2nc(-c3ccncc3)nc3c(C#CCO)cccc23)CC1 [VT02956]", 0.16),
]

Each recorded value in this set is attributed to paper PMC8881512.
